# ASSAY PROCEDURE: growth loss of RecBCD+ E. coli with mutant T4 phage, counter-screen for AddAB inhibitor project, absorbance, V66 E. coli (AID 488955);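 also: optical density read after an 18 h incubation at 37 °C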
# STATED CONDITIONS: OD growth, at 11.9 µM
Some of the results follow. The source made the active and inactive calls.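 The calls were made as follows: active = mean inhibition above the mean of solvent-only control wells plus 3 SD (cut at about 4% in these data); inactive = the rest.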
Hi! Could you answer with just one of these? active, inactive

Take a look at these entries with their results.
COMPOUND	ASSIGNED CATEGORY
C=CCNC(=O)c1cc(-c2ccccc2O)on1	inactive
CC1=C(C(=O)OCc2ccccc2)C(c2ccco2)n2ncnc2N1 (stereo not given)	inactive
Cn1ccc(=Nc2ccc(NC(=O)c3ccc(N=c4ccn(C)c5ccc([N+](=O)[O-])cc45)cc3)cc2)cc1	active

Challenge: Short answer needed: outcome of this test for CCn1c(/C=C/c2ccc([N+](=O)[O-])o2)nc2ccccc2c1=O ?
Response given: active

Challenge: Do the same for COc1ccc(C(=O)c2oc3ccc(Br)cc3c2NC(C)=O)cc1 please
Response given: inactive

Challenge: Do the same for CC[C@H]1OC(=O)[C@H](C)[C@@H](O[C@H]2C[C@@](C)(OC)[C@@H](O)[C@H](C)O2)[C@H](C)[C@@H](O[C@@H]2O[C@H](C)C[C@H](N(C)C)[C@H]2O)[C@](C)(O)C[C@@H](C)[C@@H]2N[C@@H](COCCOC)O[C@H]([C@H]2C)[C@]1(C)O please
Response given: active

Challenge: Do the same for O=c1ccc2c(-c3ccccc3S(=O)(=O)O)c3ccc(O)c(O)c3oc-2c1O please
Response given: active

Challenge: Do the same for CC(=O)N(O)CCCCCNC(=O)CCC(=O)N(O)CCCCCNC(=O)CCC(=O)N(O)CCCCCNC(=O)CCC(=O)O please
Response given: active

Challenge: Do the same for COC(=O)N/N=C/c1c[n+]([O-])c2ccccc2[n+]1[O-] please
Response given: active

Challenge: Do the same for O=C(Nc1ccc(Br)cn1)c1ccc([N+](=O)[O-])o1 please
Response given: active
